Study target: NADPH oxidase 5 (Homo sapiens) (UniProt Q96PH1)
Sequence (Q96PH1 whole entry, looked up): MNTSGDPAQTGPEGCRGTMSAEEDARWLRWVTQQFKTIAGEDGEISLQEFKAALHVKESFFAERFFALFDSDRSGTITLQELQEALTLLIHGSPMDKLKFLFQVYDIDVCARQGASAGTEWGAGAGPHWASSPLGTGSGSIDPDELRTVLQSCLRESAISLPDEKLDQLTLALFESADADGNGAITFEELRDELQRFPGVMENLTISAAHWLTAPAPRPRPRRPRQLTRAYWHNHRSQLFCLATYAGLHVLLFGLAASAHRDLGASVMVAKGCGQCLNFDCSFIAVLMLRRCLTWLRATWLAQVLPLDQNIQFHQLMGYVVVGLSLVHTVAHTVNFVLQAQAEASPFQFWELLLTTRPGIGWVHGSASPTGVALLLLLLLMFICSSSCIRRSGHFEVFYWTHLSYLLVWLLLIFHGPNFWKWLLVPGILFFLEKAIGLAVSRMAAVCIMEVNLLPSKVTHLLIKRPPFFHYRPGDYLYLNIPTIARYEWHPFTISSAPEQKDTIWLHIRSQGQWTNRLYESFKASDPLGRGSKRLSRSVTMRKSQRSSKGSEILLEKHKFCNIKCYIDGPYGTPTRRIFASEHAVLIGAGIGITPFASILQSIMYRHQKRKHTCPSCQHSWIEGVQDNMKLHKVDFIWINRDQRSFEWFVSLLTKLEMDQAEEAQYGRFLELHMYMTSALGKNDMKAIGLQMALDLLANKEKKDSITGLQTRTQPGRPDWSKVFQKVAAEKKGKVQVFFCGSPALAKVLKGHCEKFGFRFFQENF
Measurement description: NOX5-dependent H2O2 signal modulators, primary screen, NOX inhibitor project, cell-based, HEK293-NOX5, Amplex Red fluorescence (AID 1161)
Particulars: HEK293-NOX5, ionomycin, 45 min, higher = more signal
Attribute measured: z-score

1. CCOC(=O)[C@H](Cc1ccccc1)NC(=O)CCC1CC(OC(=O)NCc2cccc3ccccc23)CC2(CCCC(COC(=O)NCc3cccc(C(F)(F)F)c3)O2)O1 (some centres undefined); -0.162
2. COc1cccc([C@H]2Oc3ccc(OC)cc3C(=NO[C@H](C)c3cn([C@H](CO)Cc4ccccc4)nn3)[C@@H]2O)c1; -0.781
3. CCc1cc2c(nc1CC)CCN(CCC(C)=NOC[C@H]1O[C@H](c3ccccc3)C=C[C@@H]1Oc1ccc(OC)cc1)C2; -2.68

### Prompt Give NADPH oxidase 5 (Homo sapiens) (UniProt Q96PH1) z-score for CCOC(=O)[C@H](Cc1ccccc1)NC(=O)CCC1CC(OC(=O)NCCc2ccc(F)cc2)CC2(CCCC(COC(=O)NCc3ccccc3)O2)O1 (some centres undefined)
### Response 0.616

### Prompt Give NADPH oxidase 5 (Homo sapiens) (UniProt Q96PH1) z-score for CC(C)CON=C1C[C@@H](O)[C@@H](O)[C@@H]2[C@@H]3C(=O)N(c4cccc(Oc5ccccc5)c4)C(=O)[C@@H]3CC[C@@H]12
### Response -0.51

### Prompt Give NADPH oxidase 5 (Homo sapiens) (UniProt Q96PH1) z-score for Cc1ccc(S(=O)(=O)n2c3ccccc3c3nnc(C(=O)c4ccccc4)nc32)cc1
### Response -0.341

### Prompt Give NADPH oxidase 5 (Homo sapiens) (UniProt Q96PH1) z-score for CCCCC#C[C@@H]1C=C[C@H](Oc2cc(OC)c(OC)c(OC)c2)[C@@H](COC(=O)OCC)O1
### Response -2.66

### Prompt Give NADPH oxidase 5 (Homo sapiens) (UniProt Q96PH1) z-score for CC(=O)OC[C@H]1O[C@H](C#Cc2ccccc2)C=C[C@@H]1OC(C)=O
### Response 1.54

### Prompt Give NADPH oxidase 5 (Homo sapiens) (UniProt Q96PH1) z-score for O=C1[C@H]2[C@H]3[C@H](O)[C@H](O)CC(=NOCc4ccccc4)[C@@H]3CC[C@H]2C(=O)N1C[C@@H]1CCCO1
### Response 0.102

### Prompt Give NADPH oxidase 5 (Homo sapiens) (UniProt Q96PH1) z-score for CCOC(=O)[C@H](CC(C)C)NC(=O)CCC1CC(OC(=O)NCc2cccc3ccccc23)CC2(CCCC(COC(=O)NCc3cccc(C(F)(F)F)c3)O2)O1 (some centres undefined)
### Response 0.259

### Prompt Give NADPH oxidase 5 (Homo sapiens) (UniProt Q96PH1) z-score for CC(C)=CCCC(C)=CCON=C1C[C@@H](O)[C@@H](O)[C@@H]2[C@@H]3C(=O)N(c4ccc(F)cc4F)C(=O)[C@@H]3CC[C@H]12
### Response -4.58

### Prompt Give NADPH oxidase 5 (Homo sapiens) (UniProt Q96PH1) z-score for C#CCCCON=C1C[C@@H](O)[C@@H](O)[C@@H]2[C@@H]3C(=O)N(C(C)(C)C)C(=O)[C@@H]3CC[C@H]12
### Response 0.307

### Prompt Give NADPH oxidase 5 (Homo sapiens) (UniProt Q96PH1) z-score for O=C1[C@H]2[C@H]3[C@H](O)[C@H](O)CC(=NOCc4ccccc4)[C@H]3CC[C@H]2C(=O)N1Cc1ccc2c(c1)OCO2
### Response -2.61

### Prompt Give NADPH oxidase 5 (Homo sapiens) (UniProt Q96PH1) z-score for C[C@H](ON=C1[C@H]2CCn3c(=O)n(-c4ccccc4)c(=O)n3[C@H]2[C@H](O)[C@@H]2O[C@H]12)c1cn([C@H](CO)Cc2ccccc2)nn1
### Response 0.346
